assay: FRG1 promoter luciferase signal modulators, primary screen, FRG1 inhibition for FSHD, cell-based, C2C12 myotubes, firefly/Renilla luciferase, luminescence (AID 1084); details: higher = more signal, called active from +8 up or from −8 down
The label depends only on z-score: yes (1) if it is at least 0.5, no (0) if it is smaller.

[[record]]
compound = "COc1ccc(CCNC(=O)[C@@H]2c3ccccc3C(=O)N(Cc3cc(C(F)(F)F)cc(C(F)(F)F)c3)[C@H]2c2ccc(CO)cc2)cc1"
assigned_label = "no (0)"

[[record]]
compound = "CC(C)C[C@@H]1NC(=O)[C@@H]2C[C@H](C(=O)NCCCCN(C)C)[C@H](c3cccc(OCCO)c3)N2C1=O"
assigned_label = "yes (1)"

[[record]]
compound = "C=CCC(OC(C)=O)[C@@H]1[C@@H](N(Cc2cccc3ccccc23)C(=O)c2cccc3ccccc23)c2cc(OCCCO)ccc2N1C(=O)c1ccc(-c2ccccc2)cc1 (stereo partly specified)"
assigned_label = "no (0)"

[[record]]
compound = "[N-]=[N+]=NCc1ccccc1[C@H]1OC(c2ccc(OCCCO)cc2)=N[C@@]1(CCS(=O)(=O)c1ccccc1)C(=O)NCC(O)CO (stereo partly specified)"
assigned_label = "yes (1)"

[[record]]
compound = "O=C1O[C@H](c2ccccc2)[C@H](c2ccccc2)N2[C@H]1[C@@H](C(=O)Nc1nc3ccccc3s1)[C@]1(C(=O)Nc3ccccc31)[C@H]2c1ccc(OCCO)cc1"
assigned_label = "yes (1)"

[[record]]
compound = "COc1ccc([Si](C)(C)[C@H]2[C@H](CCn3cc([C@H](O)c4ccccc4)nn3)O[C@@]3(C(=O)N(Cc4ccc(N5C(=O)c6cccc7cccc5c67)cc4)c4ccccc43)[C@@H]2C)cc1"
assigned_label = "no (0)"

